# assayed target: human TLR9 (Homo sapiens (Human))
# Sequence (Q9NR96 26-1032): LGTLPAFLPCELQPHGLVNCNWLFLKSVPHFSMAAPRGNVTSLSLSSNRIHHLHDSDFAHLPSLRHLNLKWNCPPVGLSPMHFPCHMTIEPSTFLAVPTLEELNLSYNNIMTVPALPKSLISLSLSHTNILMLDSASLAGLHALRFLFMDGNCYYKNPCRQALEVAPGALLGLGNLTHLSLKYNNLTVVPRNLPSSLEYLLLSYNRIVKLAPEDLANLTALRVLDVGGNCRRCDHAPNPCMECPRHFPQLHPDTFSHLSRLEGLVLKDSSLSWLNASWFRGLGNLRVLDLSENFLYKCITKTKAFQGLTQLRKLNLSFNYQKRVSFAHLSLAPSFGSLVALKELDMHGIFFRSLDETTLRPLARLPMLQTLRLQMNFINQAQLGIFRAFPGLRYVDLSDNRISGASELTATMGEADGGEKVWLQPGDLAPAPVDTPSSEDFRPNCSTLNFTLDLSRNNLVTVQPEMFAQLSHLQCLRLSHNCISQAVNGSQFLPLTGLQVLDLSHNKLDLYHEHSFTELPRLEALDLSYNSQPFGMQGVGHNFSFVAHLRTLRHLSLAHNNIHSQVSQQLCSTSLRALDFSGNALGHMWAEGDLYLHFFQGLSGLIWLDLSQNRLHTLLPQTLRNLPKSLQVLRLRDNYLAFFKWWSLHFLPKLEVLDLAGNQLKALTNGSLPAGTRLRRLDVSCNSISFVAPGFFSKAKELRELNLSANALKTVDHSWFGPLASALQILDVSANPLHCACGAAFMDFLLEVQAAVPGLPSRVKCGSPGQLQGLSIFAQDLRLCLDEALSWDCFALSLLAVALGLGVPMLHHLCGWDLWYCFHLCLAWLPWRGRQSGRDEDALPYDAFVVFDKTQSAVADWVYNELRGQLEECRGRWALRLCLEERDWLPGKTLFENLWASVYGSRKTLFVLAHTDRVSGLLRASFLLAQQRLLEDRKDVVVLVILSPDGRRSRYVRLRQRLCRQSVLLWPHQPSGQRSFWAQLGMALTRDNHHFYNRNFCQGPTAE
# test details: TLR9 inhibition reporter assay (HEK-Blue SEAP);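 further: SEAP driven by an IFN-β minimal promoter with NF-κB and AP-1 sites, read after 22 h, compounds dosed 0.05 nM–50 µM, inhibition scaled between agonist plus DMSO and reference-inhibitor wells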
# test conditions: read-out: TLR9 IC50; HEK-Blue human TLR9 cells, ODN2006 5 nM

compound	endpoint unit	IC50
Cc1c(-c2[nH]c3ccc(N4C[C@H](C)NC[C@@H]4C)nc3c2C(C)C)cn2ncnc2c1C [Example 991]	µM	5.99
Cc1c(-c2[nH]c3ccc(N4C[C@@H](C)N(C(=O)CN(C)C)C[C@@H]4C)nc3c2C(C)C)cn2ncnc2c1C [Example 842]	µM	6.92
Cc1c(-c2[nH]c3ccc(N4CCN(C(=O)CN(C)C)C[C@@H]4C)nc3c2C(C)C)cn2ncnc2c1C [Example 801]	µM	11
Cc1c(-c2[nH]c3ccc(N4C[C@@H](C)N(CCC(N)=O)C[C@H]4C)nc3c2C(C)C)cn2ncnc2c1C [Example 798]	µM	22.3
Cc1c(-c2[nH]c3ccc(C4CCC(N5CC(O)C5)CC4)nc3c2C(C)C)cn2ncnc2c1C (stereo not shown) [Example 1049]	µM	2.6
Cc1c(-c2[nH]c3ccc(N4[C@@H](C)CNC[C@@H]4C)nc3c2C(C)C)cn2ncnc2c1C [Example 821]	µM	6.69
Cc1c(-c2[nH]c3ccc(N4C[C@@H](C)N[C@H](C)C4)nc3c2C(C)C)cn2ncnc2c1C [Example 884]	µM	6.5
Cc1c(-c2[nH]c3ccc(N4C[C@H](C)N(C(=O)CN(CCO)C(C)(C)C)C[C@H]4C)nc3c2C(C)C)cn2ncnc2c1C [Example 954]	µM	20.9
Cc1c(-c2[nH]c3ccc(N4CCN(C(=O)CN(C(C)C)C(C)C)CC4)nc3c2C(C)C)cn2ncnc2c1C [Example 883]	µM	12.5
Cc1c(-c2[nH]c3ccc(C4CCC(N(C)C(C)C)CC4)nc3c2C(C)C)cn2ncnc2c1C (stereo not shown) [Example 1048]	µM	9.83

====

# assayed target: human TLR8 (Homo sapiens (Human))
# Sequence (Q9NR97 27-1041): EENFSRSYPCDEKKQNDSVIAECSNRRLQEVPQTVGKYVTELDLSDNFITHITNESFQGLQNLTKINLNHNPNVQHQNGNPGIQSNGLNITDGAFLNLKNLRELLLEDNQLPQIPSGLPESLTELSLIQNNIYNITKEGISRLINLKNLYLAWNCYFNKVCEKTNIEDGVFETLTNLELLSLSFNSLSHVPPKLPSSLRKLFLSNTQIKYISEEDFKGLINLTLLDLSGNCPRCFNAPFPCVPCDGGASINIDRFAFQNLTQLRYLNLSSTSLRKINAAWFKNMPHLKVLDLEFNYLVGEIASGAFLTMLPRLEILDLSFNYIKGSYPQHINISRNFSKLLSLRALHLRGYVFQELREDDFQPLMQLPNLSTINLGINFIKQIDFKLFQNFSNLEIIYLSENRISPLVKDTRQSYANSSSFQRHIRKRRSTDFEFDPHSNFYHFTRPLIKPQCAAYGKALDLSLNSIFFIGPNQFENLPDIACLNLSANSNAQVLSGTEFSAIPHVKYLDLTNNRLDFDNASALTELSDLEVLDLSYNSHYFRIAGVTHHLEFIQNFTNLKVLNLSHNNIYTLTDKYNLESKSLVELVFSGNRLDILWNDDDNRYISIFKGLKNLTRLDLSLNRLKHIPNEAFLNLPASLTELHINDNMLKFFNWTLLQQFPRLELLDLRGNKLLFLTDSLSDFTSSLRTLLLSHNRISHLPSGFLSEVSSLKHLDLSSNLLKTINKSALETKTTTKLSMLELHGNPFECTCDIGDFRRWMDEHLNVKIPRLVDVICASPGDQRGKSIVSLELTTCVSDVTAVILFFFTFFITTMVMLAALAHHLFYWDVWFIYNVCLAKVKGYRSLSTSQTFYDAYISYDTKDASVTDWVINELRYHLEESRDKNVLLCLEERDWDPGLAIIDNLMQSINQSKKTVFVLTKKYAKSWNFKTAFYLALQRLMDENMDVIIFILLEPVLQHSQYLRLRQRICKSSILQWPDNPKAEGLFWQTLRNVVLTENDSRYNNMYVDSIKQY
# test details: TLR8 inhibition reporter assay (HEK-Blue SEAP)
# test conditions: read-out: TLR8 IC50; HEK-Blue cells overexpressing human TLR8, R848 15.9 μM stimulation, SEAP reporter
pIC50: −log10 of the molar value.
The reader will find reported pIC50 values listed item by item below.

molecule	pIC50
Cc1cc(-c2[nH]c3ccc(C4CCC(NC5COC5)CC4)nc3c2C(C)C)cn2ncnc12 (stereo not shown) [Example 284]	7.82
COc1cc(-c2[nH]c3ccc(C4CCC(NCC(=O)N(C)C)CC4)nc3c2C(C)C)cn2ncnc12 (stereo not shown) [Example 181]	7.89
CNC(=O)CN(C)C1CCC(c2ccc3[nH]c(-c4cc(OC)c5ncnn5c4)c(C(C)C)c3n2)CC1 (stereo not shown) [Example 227]	8.11
COc1cc(-c2[nH]c3ccc(N4CCN(CC5CCOC5)CC4)nc3c2C(C)C)cn2ncnc12 (stereo not shown) [Example 107]	9.43
CC(C)c1c(-c2cc(CO)c3ncnn3c2)[nH]c2ccc(N3CCC(NCC#N)CC3)nc12 [Example 83]	8.16
Cc1c(-c2[nH]c3ccc(N4CCC(N(C)Cc5ccnn5C)CC4)nc3c2C(C)C)cn2ncnc2c1C [Example 62]	8.82
Cc1c(-c2[nH]c3ccc(C4CCC(N5CCC(F)(F)CC5)CC4)nc3c2C(C)C)cn2ncnc2c1C (stereo not shown) [Example 385]	7.34
